Target: T1, recombinant purified FRα (ECL assay calibrator) (human, UniProt P15328 25-234)
T1 construct: Calibrator of the ECL sandwich assays; also called FRα calibrator; FRα standard
T1 sequence (P15328 25-234 limits assumed): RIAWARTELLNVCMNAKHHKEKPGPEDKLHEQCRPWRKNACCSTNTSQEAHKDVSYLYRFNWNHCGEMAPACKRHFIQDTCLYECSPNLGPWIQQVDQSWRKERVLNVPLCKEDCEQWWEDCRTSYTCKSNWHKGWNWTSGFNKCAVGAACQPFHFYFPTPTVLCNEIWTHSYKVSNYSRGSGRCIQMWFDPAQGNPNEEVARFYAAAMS
Experiment: ECL sandwich on FRα, signal to background; capture 28H12.G9; binder = detection Ab
Measured Average of S/B values are reported for all entries that follow.
Number only, no unit.

Some solved entries appear below for comparison.
binder	Average of S/B
Monoclonal antibody 19D4.B7 (antibody, mouse IgG2a, V domains shown, SULFO-TAG conjugated when used as detection antibody in the ECL assay; also called ATCC PTA-11884) VH: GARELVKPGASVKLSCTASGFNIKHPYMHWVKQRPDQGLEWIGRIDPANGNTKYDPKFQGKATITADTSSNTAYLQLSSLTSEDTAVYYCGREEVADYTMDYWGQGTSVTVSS VL: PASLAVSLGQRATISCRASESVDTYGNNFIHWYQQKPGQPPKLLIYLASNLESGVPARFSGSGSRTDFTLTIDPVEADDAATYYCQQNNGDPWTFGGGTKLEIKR	17
Monoclonal antibody 24H8.D3 (antibody, mouse IgG1, V domains shown, Biotin-conjugated when used as capture antibody in the ECL assay; also called ATCC PTA-123090) VH: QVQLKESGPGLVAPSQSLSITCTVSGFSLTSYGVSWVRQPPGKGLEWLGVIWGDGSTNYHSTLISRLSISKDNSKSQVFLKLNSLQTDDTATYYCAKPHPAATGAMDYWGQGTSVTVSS VL: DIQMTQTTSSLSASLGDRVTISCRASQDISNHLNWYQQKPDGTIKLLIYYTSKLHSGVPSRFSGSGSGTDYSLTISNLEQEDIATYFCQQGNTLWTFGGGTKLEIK	1
Monoclonal antibody 24H8.F3 (antibody, mouse IgG1, V domains shown, Murine IgG1 kappa from hybridoma; also called ATCC PTA-123097) VH: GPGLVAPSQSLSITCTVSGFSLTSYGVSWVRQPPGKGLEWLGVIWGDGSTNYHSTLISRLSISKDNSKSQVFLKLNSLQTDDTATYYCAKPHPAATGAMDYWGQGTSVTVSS VL: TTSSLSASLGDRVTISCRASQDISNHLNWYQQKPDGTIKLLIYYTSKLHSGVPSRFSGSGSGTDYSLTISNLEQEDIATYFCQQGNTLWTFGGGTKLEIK	2

Would you kindly share the measured Average of S/B for Monoclonal antibody 26A9.C4 (antibody, mouse IgG1, V domains shown, Murine IgG1 kappa from hybridoma; also called ATCC PTA-123092) VH: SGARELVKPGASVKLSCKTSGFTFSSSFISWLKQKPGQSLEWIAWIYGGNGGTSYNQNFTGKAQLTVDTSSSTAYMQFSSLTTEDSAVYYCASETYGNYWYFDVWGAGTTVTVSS VL: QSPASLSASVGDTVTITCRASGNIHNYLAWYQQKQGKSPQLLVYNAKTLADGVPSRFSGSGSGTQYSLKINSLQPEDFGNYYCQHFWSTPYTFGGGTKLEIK ?
1

Would you kindly share the measured Average of S/B for Monoclonal antibody 1A8.G11.E7 (antibody, mouse IgG1, V domains shown, Murine IgG1 kappa from hybridoma; also called ATCC PTA-123100) VH: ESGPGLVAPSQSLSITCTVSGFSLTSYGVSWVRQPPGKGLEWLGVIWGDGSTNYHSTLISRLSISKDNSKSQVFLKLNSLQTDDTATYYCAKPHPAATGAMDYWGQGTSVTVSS VL: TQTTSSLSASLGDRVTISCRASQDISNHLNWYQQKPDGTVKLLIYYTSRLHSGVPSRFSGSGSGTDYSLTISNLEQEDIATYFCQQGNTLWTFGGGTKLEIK ?
1

Would you kindly share the measured Average of S/B for Monoclonal antibody 6A2.G7 (antibody, mouse IgG1, V domains shown, Murine IgG1 kappa from hybridoma; also called ATCC PTA-123093) VH: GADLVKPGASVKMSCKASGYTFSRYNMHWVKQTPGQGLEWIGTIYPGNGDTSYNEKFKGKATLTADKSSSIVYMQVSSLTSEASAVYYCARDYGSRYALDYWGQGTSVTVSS VL: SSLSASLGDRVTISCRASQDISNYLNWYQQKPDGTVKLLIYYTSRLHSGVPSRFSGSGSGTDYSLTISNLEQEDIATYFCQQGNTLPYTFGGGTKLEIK ?
7
